The measured values listed here are drawn from patent US20120141538A1.

Target: T1, human CX3CR1 receptor (human, UniProt P49238 1-355)
T1 construct: Expressed on stably transfected HEK or CHO cells, or endogenous on human PBMC (CD8+ T cells, NK cells); also called HEK-CX3CR1 cells; CHO-CX3CR1 cells
T1 sequence: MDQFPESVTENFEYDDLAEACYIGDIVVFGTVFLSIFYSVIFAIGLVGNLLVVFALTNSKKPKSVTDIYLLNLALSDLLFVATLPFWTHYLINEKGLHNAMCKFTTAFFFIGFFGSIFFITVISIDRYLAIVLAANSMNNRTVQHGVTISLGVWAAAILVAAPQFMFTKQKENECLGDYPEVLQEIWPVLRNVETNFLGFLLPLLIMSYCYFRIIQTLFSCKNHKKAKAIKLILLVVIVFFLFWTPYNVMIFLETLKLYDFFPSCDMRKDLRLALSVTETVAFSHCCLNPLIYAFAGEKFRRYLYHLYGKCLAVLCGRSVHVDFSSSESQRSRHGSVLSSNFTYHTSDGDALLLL
Test: competitive radioligand binding, CX3CR1-expressing HEK cells, 125I-FKN tracer
Please respond with reported pIC50 for every item in the list.
The value called pIC50 is obtained by taking minus log10 of the concentration in mol/L.

Reported pIC50 for CX3CL1 (native human soluble chemokine) (ligand, The tracer is iodinated CX3CL1 from Amersham; also called fractalkine; FKN) QHHGVTKCNITCSKMTSKIPVALLIHYQQNQASCGKRAIILETRQHRLFCADPKEQWVKDAMQHLDRQAAALTRNG : what is it? 9.24

Entry to check: F2 (CX3CL1 analogue with N-terminal sequence QPQGVS) (ligand, Produced by chemical synthesis) QPQGVSKCNITCSKMTSKIPVALLIHYQQNQASCGKRAIILETRQHRLFCADPKEQWVKDAMQHLDRQAAALTRNG 10.30
